# credit: patent US6242494A

target_or_system: methionine aminopeptidase-2 (MetAP2) (Homo sapiens)
Construct: made in house; host or cells: insect cells, baculovirus system (secreted, purified from culture supernatant)
test_method_notes: Inhibition of MetAP2 enzyme activity (96-well, Met-Ala-Ser substrate, L-amino acid oxidase/peroxidase/ortho-dianisidine, 450 nm)
Assay type: biochemical
condition_description: IC50, recombinant MetAP2 4 μg/mL, pH 7.4, Met-Ala-Ser substrate, 20 minutes
Counter-ions that a name gives are not always drawn.
assay_readout: IC50 (nM)
// units = nM; emit number, no label

Observe how each entry below is paired with its result.
CCNC(=O)[C@H](C)NC(=O)C(O)[C@H](N)CCSC (stereo partly shown) [Example 3, hydrochloride] : 10000
C[C@H](NC(=O)C(O)[C@H](N)CC1CCCCC1)C(=O)Nc1ccc([N+](=O)[O-])cc1O (stereo partly shown) [Example 71, hydrochloride] : 12000
Cc1ccc(S(=O)(=O)NCCNC(=O)C(O)[C@H](N)CC2CCCCC2)cc1 (stereo partly shown) [Example 81, hydrochloride] : 1800
COc1ccc(-c2ccccc2)cc1NC(=O)C(O)[C@H](N)CC1CCCCC1 (mixture of isomers) [Example 221, Hydrochloride] : 5400
CCn1nccc1NC(=O)[C@H](C)NC(=O)C(O)[C@H](N)CC1CCCCC1 (stereo partly shown) [Example 72, hydrochloride] : 9200
C[C@H](NC(=O)C(O)[C@H](N)CC1CCCCC1)C(=O)NCCCN1CCCC1=O (stereo partly shown) [Example 64, hydrochloride] : 19000
COc1ccc(CCNC(=O)C(O)[C@H](N)CC2CCCCC2)cc1 (mixture of isomers) [Example 195, hydrochloride] : 1300
CCOC(=O)CCNC(=O)C(O)[C@H](N)CCSCC (stereo partly shown) [Example 14, hydrochloride] : 720
N[C@H](CC1CCCCC1)C(O)C(=O)NCCc1ccccc1Cl (mixture of isomers) [Example 108, Hydrochloride] : 630
N[C@H](CC1CCCCC1)C(O)C(=O)NCc1cc(C(F)(F)F)cc(C(F)(F)F)c1 (mixture of isomers) [Example 237, Hydrochloride] : 5100

Attention now shifts to the item below.
Query CC(C)(C)c1ccc(NC(=O)C(O)[C@H](N)CC2CCCCC2)cc1 (stereo partly shown) on methionine aminopeptidase-2 (MetAP2) (Homo sapiens); IC50 returned: 3100

###

target_or_system: methionine aminopeptidase-2 (MetAP2) (Homo sapiens, UniProt P50579)
Construct: made in house; host or cells: insect cells, baculovirus system (secreted, purified from culture supernatant)
Sequence (P50579 whole entry): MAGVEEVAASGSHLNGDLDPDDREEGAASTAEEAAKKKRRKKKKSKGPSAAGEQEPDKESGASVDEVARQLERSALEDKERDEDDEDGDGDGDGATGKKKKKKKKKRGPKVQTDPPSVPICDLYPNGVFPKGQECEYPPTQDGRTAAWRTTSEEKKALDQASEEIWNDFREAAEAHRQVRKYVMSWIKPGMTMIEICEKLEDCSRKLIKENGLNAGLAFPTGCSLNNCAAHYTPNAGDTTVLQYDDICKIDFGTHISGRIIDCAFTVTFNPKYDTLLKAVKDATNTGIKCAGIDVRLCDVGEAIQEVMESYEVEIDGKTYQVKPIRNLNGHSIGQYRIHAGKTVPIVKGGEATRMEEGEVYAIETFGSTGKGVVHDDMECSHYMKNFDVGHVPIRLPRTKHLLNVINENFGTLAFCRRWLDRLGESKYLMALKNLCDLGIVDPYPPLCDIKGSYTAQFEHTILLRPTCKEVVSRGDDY
test_method_notes: Inhibition of MetAP2 enzyme activity (96-well, Met-Ala-Ser substrate, L-amino acid oxidase/peroxidase/ortho-dianisidine, 450 nm)
Format: biochemical
condition_description: IC50, recombinant MetAP2 4 μg/mL, pH 7.4, Met-Ala-Ser substrate, 20 minutes
Structures can show the parent of a compound that is named as a salt.
assay_readout: pIC50
The quantity pIC50 is defined as the negative base-10 logarithm of the molar concentration.

Examples with their reported pIC50 follow.
N[C@H](CC1CCCCC1)C(O)C(=O)NC1CCc2ccccc21 (mixture of isomers) [Example 228, Hydrochloride] : 6.03
N[C@H](CC1CCCCC1)C(O)C(=O)NCCc1ccccc1 (mixture of isomers) [Example 192, hydrochloride] : 5.92
CSCC[C@@H](N)C(O)C(=O)NCCc1cccnc1 (mixture of isomers) : 5.85
CC(C)CCC(C)NC(=O)C(O)[C@H](N)CC1CCCCC1 (mixture of isomers) [Example 217, Hydrochloride] : 5.74

Record summary for N[C@H](CC1CCCCC1)C(O)C(=O)Nc1cccc(OC(F)(F)F)c1 (mixture of isomers) [Example 170, hydrochloride] : reported pIC50 = 6.00

What the record says about CCC(=O)OC[C@@H](C)NC(=O)C(O)[C@H](N)CC1CCCCC1 (stereo partly drawn) [Example 51, hydrochloride] : pIC50 is 5.30

pIC50 recorded for this compound, COc1cc(NC(=O)C(O)[C@H](N)CC2CCCCC2)cc(OC)c1OC (mixture of isomers) [Example 225, Hydrochloride] , is 6.46

Measured pIC50 of N[C@H](CC1CCCCC1)C(O)C(=O)Nc1ccc(Cl)cc1 (mixture of isomers) : 6.00

# pIC50 of CCOC(=O)[C@H](CF)NC(=O)C(O)[C@H](N)CC1CCCCC1 (stereo partly drawn) = 5.49

Query N[C@H](CC1CCCCC1)C(O)C(=O)NCCc1c(Cl)cccc1Cl (stereo partly drawn) yields pIC50 of 6.59

Looking up CCOc1ccccc1NC(=O)C(O)[C@H](N)CC1CCCCC1 (mixture of isomers) [Example 175, hydrochloride] , I found its pIC50 recorded as 5.68

Data point: N[C@H](CC1CCCCC1)C(O)C(=O)NCc1ccccc1C(F)(F)F (mixture of isomers) ; pIC50 = 5.57

Form field pIC50, entry N[C@H](CC1CCCCC1)C(O)C(=O)NCc1ccc(Cl)cc1Cl (stereo partly drawn) [Example 97, Hydrochloride] : 5.52

For N[C@H](CC1CCCCC1)C(O)C(=O)NCCc1ccc(Oc2ccccc2)cc1 (mixture of isomers) [Example 168, hydrochloride] the compound record lists pIC50 as 5.82

// CCOC(=O)CN(C)C(=O)C(O)[C@H](N)CCSCC (stereo partly drawn) [Example 39, hydrochloride] : pIC50 value = 5.29

###

target_or_system: methionine aminopeptidase-2 (MetAP2) (Homo sapiens)
Construct: made in house; host or cells: insect cells, baculovirus system (secreted, purified from culture supernatant)
test_method_notes: Inhibition of MetAP2 enzyme activity (96-well, Met-Ala-Ser substrate, L-amino acid oxidase/peroxidase/ortho-dianisidine, 450 nm)
Assay type: biochemical
condition_description: recombinant MetAP2 4 μg/mL, pH 7.4, Met-Ala-Ser substrate, 20 minutes
Protocol: The ability of compounds of the present invention to inhibit methionine aminopeptidase 2 was evaluated using the following assay. Assays for MetAP2 enzyme activity and MetAP2 inhibition were performed in 96-well microtiter plates. […] The absorbence at 450 nanometers was measured every 20 seconds over a period of twenty minutes using an automaic plate reader (Molecular Devices, CA, USA). The Vmax in mOD/min, calculated for each well was used to represent MetAP2 activity. […]
Counter-ions that a name gives are not always drawn.
assay_readout: pIC50
Please express pIC50 as -log10 of the molar concentration.

N[C@H](CC1CCCCC1)C(O)C(=O)NC1CCCc2ccccc21 (mixture of isomers) [Example 110, Hydrochloride] : 6.00
COc1ccc2[nH]cc(CCNC(=O)[C@H](C)NC(=O)C(O)[C@H](N)CC3CCCCC3)c2c1 (stereo partly shown) [Example 65, hydrochloride] : 5.25
CCOC(=O)CCCNC(=O)C(O)[C@H](N)CC1CCCCC1 (mixture of isomers) [Example 25, hydrochloride] : 5.72

pIC50 on methionine aminopeptidase-2 (MetAP2) (Homo sapiens) for CCCC[C@H](NC(=O)C(O)[C@H](N)CC1CCCCC1)C(=O)OC (stereo partly shown) [Example 129, hydrochloride] is 4.57

###

target_or_system: methionine aminopeptidase-2 (MetAP2) (Homo sapiens)
Construct: made in house; host or cells: insect cells, baculovirus system (secreted, purified from culture supernatant)
test_method_notes: Inhibition of MetAP2 enzyme activity (96-well, Met-Ala-Ser substrate, L-amino acid oxidase/peroxidase/ortho-dianisidine, 450 nm)
Format: biochemical
condition_description: IC50, recombinant MetAP2 4 μg/mL, pH 7.4, Met-Ala-Ser substrate, 20 minutes
Description: The ability of compounds of the present invention to inhibit methionine aminopeptidase 2 was evaluated using the following assay. Assays for MetAP2 enzyme activity and MetAP2 inhibition were performed in 96-well microtiter plates. […] The absorbence at 450 nanometers was measured every 20 seconds over a period of twenty minutes using an automaic plate reader (Molecular Devices, CA, USA). The Vmax in mOD/min, calculated for each well was used to represent MetAP2 activity. […]
Structures can show the parent of a compound that is named as a salt.
In this section, each of the compounds is paired with its reported pIC50.
// returns pIC50 (minus log10 of molar concentration), number only

N[C@H](CC1CCCCC1)C(O)C(=O)NCC1CCCCC1 (mixture of isomers) [Example 205, Hydrochloride] : 5.60
N[C@H](CC1CCCCC1)C(O)C(=O)NCCc1cccc(Cl)c1 (mixture of isomers) [Example 199, hydrochloride] : 6.00
N[C@H](CC1CCCCC1)C(O)C(=O)Nc1ccc(C(F)(F)F)cc1 (mixture of isomers) : 5.62
Cc1ccc(CCNC(=O)C(O)[C@H](N)CC2CCCCC2)cc1 (mixture of isomers) [Example 194, hydrochloride] : 5.85
CC(Cc1ccccc1F)NC(=O)C(O)[C@H](N)CC1CCCCC1 (mixture of isomers) [Example 226, Hydrochloride] : 6.01

The value of pIC50 measured for the compound N[C@H](CC1CCCCC1)C(O)C(=O)NCc1ccc(Br)cc1 (mixture of isomers) [Example 190, hydrochloride] turned out to be 5.89

Looking up N[C@H](CC1CCCCC1)C(O)C(=O)Nc1ccc(Cl)cc1Cl (mixture of isomers) , I see its pIC50 listed as 5.72
